I'd appreciate it if you could supply logP values for the items below.
Answers are plain numbers.

// known answers, use as guide
• CC(=O)Nc1ccc(OCC(O)CNCC(O)COc2ccccc2)cc1 (configuration not stated) = 1.39
• CNC(=O)COc1ccccc1OCC(O)CNC(C)(C)C (configuration not stated) = 1.36
• C#CCOc1ccccc1OCC(O)CNC(C)(C)C (configuration not stated) = 2.32
• COc1ccccc1OCC(O)CNC(C)C (configuration not stated) = 1.69

// each listed compound needs a value for logP
1. CC(=O)Nc1ccc(OCC(O)CNC(C)C)c(C(C)=O)c1 (configuration not stated)
2. Cc1cc2c(OCC(O)CNC(C)C)cccc2[nH]1 (configuration not stated)
3. CC(=O)c1cc2cccc(OCC(O)CNC(C)C)c2o1 (configuration not stated)
4. CC(C)NCC(O)COc1ccccc1C1CC1 (configuration not stated)
5. CC(C)NC[C@H](O)COc1ccc(OCCOCCc2ccc(F)cc2)cc1
6. CC(C)NCC(O)COc1ccc(CCOCC2CC2)cc1 (configuration not stated)
7. CC(C)NCC(O)COc1ccc(COCCOC(C)C)cc1 (configuration not stated)

Output:
1: 0.94; 2: 2.3; 3: 2.02; 4: 3.07; 5: 3.7; 6: 2.81; 7: 1.87

Task: Give the measured logP of Cc1ccccc1OCC(O)CNCC(O)COc1ccccc1C (configuration not stated) .
Output: 3.67
